# System: CCRIS mutagenicity, Ames/micronucleus/aberration tests
# Method description: CCRIS mutagenicity studies
# Applied conditions: Test System: E. COLI; Strain/Indicator: WP2 UVRA; Metabolic Activation: RAT, LIVER, S-9; Method: STANDARD PLATE
# Description: The CCRIS database contains chemical records with carcinogenicity, mutagenicity, tumor promotion, and tumor inhibition test results. It was developed by the National Cancer Institute (NCI). Data are derived from studies cited in primary journals, current awareness tools, NCI reports, and other sources. Test results have been reviewed by experts in carcinogenesis and mutagenesis. CCRIS provides historical information from the years 1985 - 2011. It is no longer updated. […]
Calls of active or inactive are those of the source. No rule for the calls is given here.
Could you please pick one outcome from this set? True for active, False for inactive

Sample answers from the record:
CC(=O)Nc1cccc2c1-c1ccccc1C2: False
CC(=O)OC/N=[N+](/C)[O-]: False
CN(C)c1ccc(C(=O)c2ccc(N(C)C)cc2)cc1: False
CCOP(=S)(OCC)Oc1cc(C)nc(C(C)C)n1: False
CCC1(CC(=O)O)OCCc2c1[nH]c1c(C)cccc21 (configuration not stated): False
O=Nc1ccc(NO)cc1: False
CCN(CC)N=O: False
O=CC1CO1 (configuration not stated): True
Nc1cccc2c(N)cccc12: False
Nc1ccc2ccccc2c1: False

What call does the record list for Nc1ccc(Cl)c(N)c1 ? False

What call does the record list for COc1ccc(N)cc1 ? False
